systemTested: Human RAR-related Orphan Receptor Gamma (RORγ) (Homo sapiens)
Sequence (P51449 269-508 limits assumed): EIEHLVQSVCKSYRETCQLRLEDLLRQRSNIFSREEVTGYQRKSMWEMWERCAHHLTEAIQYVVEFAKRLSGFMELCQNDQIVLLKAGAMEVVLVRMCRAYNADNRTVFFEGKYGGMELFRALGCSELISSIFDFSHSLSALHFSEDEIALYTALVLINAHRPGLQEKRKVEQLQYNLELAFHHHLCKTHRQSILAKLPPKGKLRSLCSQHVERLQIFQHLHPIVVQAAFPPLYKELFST
testSummary: RORγ assay (GAL4-RORγ hybrid luciferase reporter, Indigo Biosciences)
conditionsUsed: inverse-agonist activity, GAL4-RORγ reporter cells, 23 hours
reportedEndpoint: IC50 (nM)
Just the number please, in nM, no unit attached.

Solved entries:
smilesString: C[C@H]1C(=O)C(C#N)=C[C@@]2(C)c3c(c(-c4ccccc4F)nn3-c3nnc(-c4ccccc4)n3C)CC[C@H]12
systemTested: Human RAR-related Orphan Receptor Gamma (RORγ) (Homo sapiens)
readoutValue: 351
--
smilesString: C[C@H]1C(=O)C(C#N)=C[C@@]2(C)c3c(c(-c4ccccc4F)nn3-c3nc4cc(C(F)(F)F)ccc4s3)CC[C@H]12
systemTested: Human RAR-related Orphan Receptor Gamma (RORγ) (Homo sapiens)
readoutValue: 219
--
smilesString: Cc1ccccc1-n1nc(-c2ccccc2)c2c1[C@]1(C)C=C(C#N)C(=O)[C@H](C)[C@H]1CC2
systemTested: Human RAR-related Orphan Receptor Gamma (RORγ) (Homo sapiens)
readoutValue: 77
--
smilesString: CC(C)c1ccc(-c2nc3c(n2CCO)CC[C@@H]2[C@@H](C)C(=O)C(C#N)=C[C@@]32C)cc1
systemTested: Human RAR-related Orphan Receptor Gamma (RORγ) (Homo sapiens)
readoutValue: 178

Form field - read-out: IC50; system: Human RAR-related Orphan Receptor Gamma (RORγ) (Homo sapiens); submitted item: `C[C@H]1C(=O)C(C#N)=C[C@@]2(C)c3nc(-c4cccc(-c5cncnc5)c4)n(-c4cccc(F)c4)c3CC[C@H]12` 108

Provide value of IC50 for this record tested with Human RAR-related Orphan Receptor Gamma (RORγ) (Homo sapiens): `CC(C)c1ccc(-c2nc3c(n2Cc2ccccc2)CC[C@@H]2[C@@H](C)C(=O)C(C#N)=C[C@@]32C)cc1` 228

Kindly state the measured IC50 obtained for `C[C@H]1C(=O)C(C#N)=C[C@@]2(C)c3c(c(-c4ccncn4)nn3-c3ccc(-c4cccnc4)cn3)CC[C@H]12` with Human RAR-related Orphan Receptor Gamma (RORγ) (Homo sapiens). 96

Kindly state the measured IC50 obtained for `C[C@H]1C(=O)C(C#N)=C[C@@]2(C)c3nc(-c4cccc(-c5ccncc5)c4)n(-c4cnn(C)c4)c3CC[C@H]12` with Human RAR-related Orphan Receptor Gamma (RORγ) (Homo sapiens). 201

Human RAR-related Orphan Receptor Gamma (RORγ) (Homo sapiens) / IC50 / `C[C@H]1C(=O)C(C#N)=C[C@@]2(C)c3c(c(-c4ccncn4)nn3-c3ccc(-c4cncc(F)c4)cc3)CC[C@H]12` : value? 59

Each recorded value in this set is attributed to patent US11993574B2.
